FYI, the data here is from the supplement of paper PMC10567573.

B1: TCEB3B (parent)
chain: STTALGDKQRKANESKGTRESWDS

# Variants of: B1
# Assay Name: protein stability index of a GFP-peptide fusion (GPS, HEK-293T) (PSI 1-6); higher = more stable;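 note: lentivirally expressed fusions sorted by FACS into six bins by GFP to DsRed ratio, PSI derived from sequencing read proportions per bin multiplied by bin number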
# Particulars: c terminus: a fixed tail appended
Each entry gets 0.0 if its protein stability index stays under 4, and 1.0 if its protein stability index is 4 or above.

> print(dat)
                          seq.text  class.label
1  STTALGDKQRKANESMGTRESWDS [K16M]          0.0
2   SVTALGDKQRKANESKGTRESWDS [T2V]          0.0
3  STTALGDKQRKANESPGTRESWDS [K16P]          1.0
4  STTALGDKQRKPNESKGTRESWDS [A12P]          1.0
5   SFTALGDKQRKANESKGTRESWDS [T2F]          0.0
